Protocol Description: Preclinical oral dosing studies in dogs
Assay Setup: dog, in vivo
Quantity Measured: bioavailability

Entry CC(C)[C@@H](CC[C@@H](C)[C@H]1CC[C@H]2[C@@H]3[C@H](O)C[C@H]4C[C@@H](NCCCNCCCCN)CC[C@]4(C)[C@H]3CC[C@]12C)OS(=O)(=O)O (single isomer, unassigned) [squalamine (ENT-01)] : reported bioavailability = ?
~0.1%

###

Protocol Description: Pharmacokinetics of orally administered squalamine (ENT-01), Phase 2 trial
Type: in vivo
Assay Setup: human, plasma, po, 100 mg, Stage 1, 100 mg oral, 9 patients; read-out: Tmax (median value)
Quantity Measured: Tmax (h)
Return type: number; implicit unit h.

Entry CC(C)[C@@H](CC[C@@H](C)[C@H]1CC[C@H]2[C@@H]3[C@H](O)C[C@H]4C[C@@H](NCCCNCCCCN)CC[C@]4(C)[C@H]3CC[C@]12C)OS(=O)(=O)O (single isomer, unassigned) [squalamine (ENT-01)] : reported Tmax = ?
2

###

Protocol Description: Pharmacokinetics of orally administered squalamine (ENT-01), Phase 2 trial
Format: in vivo
Assay Setup: human, plasma, po, 125 mg, Stage 1, 125 mg oral, 9 patients; read-out: AUC0-8hr
Quantity Measured: AUC(0-t)

Entry CC(C)[C@@H](CC[C@@H](C)[C@H]1CC[C@H]2[C@@H]3[C@H](O)C[C@H]4C[C@@H](NCCCNCCCCN)CC[C@]4(C)[C@H]3CC[C@]12C)OS(=O)(=O)O (single isomer, unassigned) [squalamine (ENT-01)] : reported AUC(0-t) = ?
0.0431 µg·h/mL

###

Protocol Description: Pharmacokinetics of orally administered squalamine (ENT-01), Phase 2 trial
Assay type: in vivo
Assay Setup: human, plasma, po, 75 mg, Stage 1, 75 mg oral, 9 patients; read-out: Tmax (median value)
Quantity Measured: Tmax
Your answer should be a number followed by the unit of measure.

Entry CC(C)[C@@H](CC[C@@H](C)[C@H]1CC[C@H]2[C@@H]3[C@H](O)C[C@H]4C[C@@H](NCCCNCCCCN)CC[C@]4(C)[C@H]3CC[C@]12C)OS(=O)(=O)O (single isomer, unassigned) [squalamine (ENT-01)] : reported Tmax = ?
2 h

###

Protocol Description: Pharmacokinetics of orally administered squalamine (ENT-01), Phase 2 trial
Assay type: in vivo
Assay Setup: human, in vivo, po, 100 mg, Stage 2, 100 mg oral daily, n = 5; read-out: T1/2 (converted)
Quantity Measured: half-life
Your answer should be a number followed by the unit of measure.

Entry CC(C)[C@@H](CC[C@@H](C)[C@H]1CC[C@H]2[C@@H]3[C@H](O)C[C@H]4C[C@@H](NCCCNCCCCN)CC[C@]4(C)[C@H]3CC[C@]12C)OS(=O)(=O)O (single isomer, unassigned) [squalamine (ENT-01)] : reported half-life = ?
4.8 h

###

Protocol Description: Pharmacokinetics of orally administered squalamine (ENT-01), Phase 2 trial
Type: in vivo
Assay Setup: human, in vivo, po, 25 mg, Stage 1, 25 mg oral, 9 patients; read-out: AUC0-16hr
Quantity Measured: AUC(0-t) (ng·h/mL)
Return type: number; implicit unit ng·h/mL.

Entry CC(C)[C@@H](CC[C@@H](C)[C@H]1CC[C@H]2[C@@H]3[C@H](O)C[C@H]4C[C@@H](NCCCNCCCCN)CC[C@]4(C)[C@H]3CC[C@]12C)OS(=O)(=O)O (single isomer, unassigned) [squalamine (ENT-01)] : reported AUC(0-t) = ?
19.6

###

Protocol Description: Pharmacokinetics of orally administered squalamine (ENT-01), Phase 2 trial
Assay type: in vivo
Assay Setup: human, in vivo, po, 50 mg, Stage 1, 50 mg oral, 10 patients; read-out: Tmax (median value)
Quantity Measured: Tmax (h)
Return type: number; implicit unit h.

Entry CC(C)[C@@H](CC[C@@H](C)[C@H]1CC[C@H]2[C@@H]3[C@H](O)C[C@H]4C[C@@H](NCCCNCCCCN)CC[C@]4(C)[C@H]3CC[C@]12C)OS(=O)(=O)O (single isomer, unassigned) [squalamine (ENT-01)] : reported Tmax = ?
2

###

Protocol Description: Pharmacokinetics of orally administered squalamine (ENT-01), Phase 2 trial
Format: in vivo
Assay Setup: human, plasma, po, 75 mg, Stage 2, 75 mg oral daily, n = 1; read-out: T1/2 (converted)
Quantity Measured: half-life (h)
Return type: number; implicit unit h.

Entry CC(C)[C@@H](CC[C@@H](C)[C@H]1CC[C@H]2[C@@H]3[C@H](O)C[C@H]4C[C@@H](NCCCNCCCCN)CC[C@]4(C)[C@H]3CC[C@]12C)OS(=O)(=O)O (single isomer, unassigned) [squalamine (ENT-01)] : reported half-life = ?
5.5

###

Protocol Description: Pharmacokinetics of orally administered squalamine (ENT-01), Phase 2 trial
Type: in vivo
Assay Setup: human, plasma, po, 200 mg, Stage 1, 200 mg oral, 6 patients; read-out: Tmax (median value)
Quantity Measured: Tmax (h)
Return type: number; implicit unit h.

Entry CC(C)[C@@H](CC[C@@H](C)[C@H]1CC[C@H]2[C@@H]3[C@H](O)C[C@H]4C[C@@H](NCCCNCCCCN)CC[C@]4(C)[C@H]3CC[C@]12C)OS(=O)(=O)O (single isomer, unassigned) [squalamine (ENT-01)] : reported Tmax = ?
2

###

Protocol Description: Pharmacokinetics of orally administered squalamine (ENT-01), Phase 2 trial
Format: in vivo
Assay Setup: human, plasma, po, 125 mg, Stage 1, 125 mg oral, 9 patients; read-out: Tmax (median value)
Quantity Measured: Tmax (h)
Return type: number; implicit unit h.

Entry CC(C)[C@@H](CC[C@@H](C)[C@H]1CC[C@H]2[C@@H]3[C@H](O)C[C@H]4C[C@@H](NCCCNCCCCN)CC[C@]4(C)[C@H]3CC[C@]12C)OS(=O)(=O)O (single isomer, unassigned) [squalamine (ENT-01)] : reported Tmax = ?
2

###

Protocol Description: Pharmacokinetics of orally administered squalamine (ENT-01), Phase 2 trial
Format: in vivo
Assay Setup: human, plasma, po, 100 mg, Stage 1, 100 mg oral, 9 patients; read-out: AUC0-16hr
Quantity Measured: AUC(0-t) (ng·h/mL)
Return type: number; implicit unit ng·h/mL.

Entry CC(C)[C@@H](CC[C@@H](C)[C@H]1CC[C@H]2[C@@H]3[C@H](O)C[C@H]4C[C@@H](NCCCNCCCCN)CC[C@]4(C)[C@H]3CC[C@]12C)OS(=O)(=O)O (single isomer, unassigned) [squalamine (ENT-01)] : reported AUC(0-t) = ?
51.5

###

Protocol Description: Pharmacokinetics of orally administered squalamine (ENT-01), Phase 2 trial
Format: in vivo
Assay Setup: human, plasma, po, 150 mg, Stage 1, 150 mg oral, 7 patients, mean, approximate
Procedure: PK data were collected on the 10 patients enrolled in Stage 1 and 10 patients enrolled in Stage 2 to determine the extent of systemic absorption. In Stage 1, PK data were obtained at each visit, pre-medication, at 1, 2, 4, 8 and 24 hours (Table 11). In Stage 2, PK was measured on days 1 and 6 of the randomization period pre-medication, at 1, 2, 4 and 8 hours (Table 12). The mean Cmax, Tmax and T1/2 and AUC of the squalamine ion following squalamine (ENT-01) oral dosing for Stage 1 patients. […]
Quantity Measured: Cmax
Your answer should be a number followed by the unit of measure.

Entry CC(C)[C@@H](CC[C@@H](C)[C@H]1CC[C@H]2[C@@H]3[C@H](O)C[C@H]4C[C@@H](NCCCNCCCCN)CC[C@]4(C)[C@H]3CC[C@]12C)OS(=O)(=O)O (single isomer, unassigned) [squalamine (ENT-01)] : reported Cmax = ?
6.27 ng/mL

###

Protocol Description: Pharmacokinetics of orally administered squalamine (ENT-01), Phase 2 trial
Type: in vivo
Assay Setup: human, plasma, po, 100 mg, Stage 1, 100 mg oral, 9 patients; read-out: AUC0-8hr
Quantity Measured: AUC(0-t) (ng·h/mL)
Return type: number; implicit unit ng·h/mL.

Entry CC(C)[C@@H](CC[C@@H](C)[C@H]1CC[C@H]2[C@@H]3[C@H](O)C[C@H]4C[C@@H](NCCCNCCCCN)CC[C@]4(C)[C@H]3CC[C@]12C)OS(=O)(=O)O (single isomer, unassigned) [squalamine (ENT-01)] : reported AUC(0-t) = ?
29.6

###

Protocol Description: Pharmacokinetics of orally administered squalamine (ENT-01), Phase 2 trial
Assay type: in vivo
Assay Setup: human, in vivo, po, 50 mg, Stage 1, 50 mg oral, n = 3; read-out: T½ (converted)
Quantity Measured: half-life (h)
Return type: number; implicit unit h.

Entry CC(C)[C@@H](CC[C@@H](C)[C@H]1CC[C@H]2[C@@H]3[C@H](O)C[C@H]4C[C@@H](NCCCNCCCCN)CC[C@]4(C)[C@H]3CC[C@]12C)OS(=O)(=O)O (single isomer, unassigned) [squalamine (ENT-01)] : reported half-life = ?
3.4
